Would you mind telling me the reported IC50 of each entry?
SYSTEM_UNDER_TEST: CDK2/Cyclin E complex (Homo sapiens, UniProt P24941)
RUN_DESCRIPTION: CDK2/Cyclin E fluorescence-based microfluidic mobility shift assay (CDK2 Biochemical Caliper Assay)
RECORDED_CONDITIONS: read-out: Biochemical CDK2/CyclinE Caliper IC50

# get_value(readout='IC50', item= COCc1cc(C(=O)Nc2cc([C@H]3C[C@@H](OC(=O)NC4(C)CC4)CO3)[nH]n2)n(C(F)(F)F)n1 )
≤ 100 nM

# lookup: IC50 of CC1Cc2nc(Nc3cc(C4CCCC4)[nH]n3)ncc2C(C)O1 (centres unmarked)
1000 to 100000 nM

Recorded IC50 for COCc1cc2c(Nc3cc([C@H]4C[C@H](COC(=O)NC(C)C)C4)[nH]n3)nccn2n1 , please?
100 to 250 nM

Query: IC50; subject: COCc1cc(C(=O)Nc2cc([C@H]3CC[C@@H](Oc4nnccc4-c4ccccc4)C3)[nH]n2)n(C)n1 (single isomer, unassigned)
100 to 250 nM

What does the data say about its IC50? Entry: CC1(NC(=O)O[C@H]2CO[C@H](c3cc(Nc4nccc5nc(C(F)(F)F)cn45)n[nH]3)C2)CC1
250 to 1000 nM

* * *

Hi there, I'd appreciate the recorded IC50 for every entry that follows.
SYSTEM_UNDER_TEST: CDK2/Cyclin E complex (Homo sapiens)
RUN_DESCRIPTION: CDK2/Cyclin E fluorescence-based microfluidic mobility shift assay (CDK2 Biochemical Caliper Assay)
RECORDED_CONDITIONS: read-out: Biochemical CDK2/CyclinE Caliper IC50

What IC50 value was documented for this compound, Cc1[nH]nc2nccc(Nc3cc(C4CCCC4)[nH]n3)c12 ?
1000 to 100000 nM

IC50 lookup needed for Cn1nc(COC(F)(F)F)cc1C(=O)Nc1cc([C@H]2C[C@@H](OC(=O)NC(C)(C)C)CO2)[nH]n1 , thanks.
≤ 100 nM

Quick check: IC50 of COCc1cc(C(=O)Nc2cc([C@H]3C[C@@H](OC(=O)NC4(C)CC4)CO3)[nH]n2)n(C)n1 ?
≤ 100 nM

Recorded IC50 for CC(C)NC(=O)O[C@H]1CC[C@@H](c2cc(Nc3nccn4nc(C(F)(F)F)cc34)n[nH]2)C1 (single isomer, unassigned) , please?
≤ 100 nM

Field request: IC50 | item: Cc1c(Nc2cc(C3CCCC3)[nH]n2)nn2cnnc2c1C
1000 to 100000 nM

// lookup IC50 for CC1(NC(=O)O[C@H]2CO[C@@H](c3cc(Nc4nccn5nccc45)n[nH]3)C2)CC1
≤ 100 nM

* * *

SYSTEM_UNDER_TEST: CDK2/Cyclin E complex (Homo sapiens)
RUN_DESCRIPTION: CDK2/Cyclin E fluorescence-based microfluidic mobility shift assay (CDK2 Biochemical Caliper Assay)
RECORDED_CONDITIONS: read-out: Biochemical CDK2/CyclinE Caliper IC50
READOUT_NAME: IC50

CDK2/Cyclin E complex (Homo sapiens) / IC50 / COCc1cc2c(Nc3cc([C@H]4C[C@@H](OC(=O)NC5(c6cnn(C)c6)CC5)CO4)[nH]n3)nccn2n1 [Example 678] : value?
100 to 250 nM

# get_value(readout= IC50, system= CDK2/Cyclin E complex (Homo sapiens)) for CC1(NC(=O)O[C@H]2CO[C@@H](c3cc(Nc4ncnc5sncc45)n[nH]3)C2)CC1 [Example 725]
≤ 100 nM

State its IC50 on CDK2/Cyclin E complex (Homo sapiens): COCc1cc(C(=O)Nc2cc([C@H]3CC[C@@H](Oc4cccnc4C)C3)[nH]n2)n(C)n1 (single isomer, unassigned) [Example 385]
1000 to 100000 nM

Query the reported IC50 for CDK2/Cyclin E complex (Homo sapiens); item: CC1(NC(=O)O[C@@H]2CO[C@H](c3cc(Nc4nccn5nccc45)n[nH]3)C2)CC1 [Example 782]
≤ 100 nM

Provide the documented IC50 with CDK2/Cyclin E complex (Homo sapiens) as the system for Cn1nc(COCC(F)(F)F)cc1C(=O)Nc1cc([C@H]2C[C@@H](OC(=O)NC3(C)CC3)CO2)[nH]n1 [Example 771]
≤ 100 nM

* * *

SYSTEM_UNDER_TEST: CDK2/Cyclin E complex (Homo sapiens)
RUN_DESCRIPTION: CDK2/Cyclin E fluorescence-based microfluidic mobility shift assay (CDK2 Biochemical Caliper Assay)
RECORDED_CONDITIONS: read-out: Biochemical CDK2/CyclinE Caliper IC50
READOUT_NAME: IC50

Endpoint output: IC50 of Cn1nc(C(F)F)cc1C(=O)Nc1cc([C@H]2C[C@@H](OC(=O)NC3(C)CC3)CO2)[nH]n1 . Value?
≤ 0.1 µM

Record request: IC50 value, item Cc1cc(CC(=O)Nc2cc([C@H]3CC[C@@H](NC(=O)[C@@H](O)C(C)C)C3)[nH]n2)on1 (single isomer, unassigned)
1 to 100 µM

Would you kindly share the measured IC50 for CC(C)c1ccnnc1O[C@@H]1CO[C@H](c2cc(Nc3nccc4ncsc34)n[nH]2)C1 ?
≤ 0.1 µM

* * *

Assign pIC50 to each entry below.
SYSTEM_UNDER_TEST: CDK2/Cyclin E complex (Homo sapiens, UniProt P24941)
RUN_DESCRIPTION: CDK2/Cyclin E fluorescence-based microfluidic mobility shift assay (CDK2 Biochemical Caliper Assay)
RECORDED_CONDITIONS: read-out: Biochemical CDK2/CyclinE Caliper IC50
pIC50: −log10 of the molar value.

Given CC(C)NC(=O)N[C@@H]1CC[C@H](c2cc(Nc3ncccn3)n[nH]2)C1 (single isomer, unassigned) [Example 86] , state its recorded pIC50.
4.00 to 6.00

Look up pIC50 for this compound: Cc1cc(CC(=O)Nc2cc([C@@H]3C[C@@H]3COC(=O)NC(C)C)[nH]n2)on1 (single isomer, unassigned)
4.00 to 6.00

Quick check: pIC50 of Cc1cc(CC(=O)Nc2cc([C@@H]3CC[C@H](NC(=O)[C@H](O)C(C)C)C3)[nH]n2)on1 (single isomer, unassigned) ?
4.00 to 6.00

// lookup pIC50 for Cc1cc(CC(=O)Nc2cc([C@H]3C[C@H](COc4nscc4C4CC4)C3)[nH]n2)on1
4.00 to 6.00

Entry COCc1cc(C(=O)Nc2cc([C@@H]3CC[C@H](Oc4nncc5cnccc45)C3)[nH]n2)n(C)n1 (single isomer, unassigned) : reported pIC50 = ?
6.00 to 6.60

State the recorded pIC50 for this entry: COCc1cc2c(Nc3cc([C@@H]4C[C@H](Oc5nnccc5C(C)C)CO4)[nH]n3)nccn2n1
≥ 7.00

What does the record list as pIC50 for CC(C)n1cnnc1OC[C@H]1C[C@@H](c2cc(Nc3nccn4nccc34)n[nH]2)C1 ?
≥ 7.00

Item COCc1cc2c(Nc3cc([C@H]4C[C@@H](Oc5nnccc5C(C)C)CO4)[nH]n3)nccn2n1 has what recorded pIC50?
≥ 7.00

Could you share which pIC50 value was measured for CC(C)NC(=O)O[C@H]1CO[C@@H](c2cc(NC(=O)c3cc(COC(F)(F)F)nn3C)n[nH]2)C1 ?
≥ 7.00
